Just for reference, paper PMC9078697 is where these values come from.

Tested on: S. aureus
Assay: Bacteriostatic screening (growth, OD630) against S. aureus
Assay type: cell-based
Details: at 250 μM of the tested compound, 250 µM
quantity-measured: inhibition rate (%) SA

Recorded inhibition rate (%) SA of C=C1CCC2C3(C)COC(C)(C)OC3CCC2(C)C1CC=C1C(=O)OCC1Oc1ccc([N+](=O)[O-])cc1C(=O)OC (stereo not shown) [5a1] , please.
(14) %

Recorded inhibition rate (%) SA of C=C1CCC2C(C)(CO)C(O)CCC2(C)C1CC=C1C(=O)OCC1Oc1ccccc1OC (stereo not shown) [6a12] , please.
(14) %

---

For each entry below, report its EC50 value.
System: IL-6/STAT3 signaling pathway
Assay: IL-6/STAT3 luciferase reporter assay in AD-293 cells
Type: cell-based
Details: Homo sapiens, AD293; AD-293 reporter cells; 2.5 μg mL−1 IL-6; treated for 16 h

Recorded EC50 of C=C1CC[C@@H]2[C@](C)(CO)[C@H](O)CC[C@@]2(C)[C@@H]1C/C=C1/C(=O)OC[C@H]1O [compound 1, Andrographolide] , please.
> 10 µM

Recorded EC50 of C=C1CC[C@H]2[C@@](C)(CCC(=O)[C@@]2(C)COC(C)=O)[C@@H]1C/C=C1/C(=O)OC[C@@H]1Oc1cccc2cccnc12 [8b1] , please.
> 10 µM

Recorded EC50 of C=C1CC[C@@H]2[C@](C)(COC(C)=O)[C@H](O)CC[C@@]2(C)[C@@H]1C/C=C1/C(=O)OC[C@@H]1Oc1cccc2cccnc12 [7b1] , please.
> 10 µM
